Test system: Staphylococcus aureus
Assay: Inhibition of FabB/FabF in methicillin-resistant Staphylococcus aureus assessed as antibacterial activity after 16 hrs by agar dilution method
This section presents molecules with their documented MIC values.
Report the value in µg/mL with no unit label.

- structure-smiles: "C[C@]12C[C@@]34C=C(SC5CCCCC5)C(=O)[C@@](C)(CCC(=O)Nc5c(O)ccc(C(=O)O)c5O)[C@@H]3[C@H](C[C@@H]1C4)O2"
  MIC / µg/mL: 0.25
- structure-smiles: "C[C@]12C[C@@]34C=CC(=O)[C@@](C)(CCC(=O)Nc5c(O)ccc(C(=O)O)c5O)[C@@H]3[C@H](C[C@@H]1C4)O2"
  MIC / µg/mL: 0.5
- structure-smiles: "C[C@]12C[C@@]34C=C(Sc5ccc(F)cc5)C(=O)[C@@](C)(CCC(=O)Nc5c(O)ccc(C(=O)O)c5O)[C@@H]3[C@H](C[C@@H]1C4)O2"
  MIC / µg/mL: 0.5
- structure-smiles: "C[C@]12C[C@@]34C=C(Sc5ccc(I)cc5)C(=O)[C@@](C)(CCC(=O)Nc5c(O)ccc(C(=O)O)c5O)[C@@H]3[C@H](C[C@@H]1C4)O2"
  MIC / µg/mL: 0.25
- structure-smiles: "C[C@]12C[C@@]34C=C(Sc5cccc(C#CC6(O)CCCCC6)c5)C(=O)[C@@](C)(CCC(=O)Nc5c(O)ccc(C(=O)O)c5O)[C@@H]3[C@H](C[C@@H]1C4)O2"
  MIC / µg/mL: 0.25

Record CCCSC1=C[C@]23C[C@H]4C[C@H](O[C@@]4(C)C2)[C@H]3[C@](C)(CCC(=O)Nc2c(O)ccc(C(=O)O)c2O)C1=O , field MIC: 0.5

The measured MIC associated with C[C@]12C[C@]34C[C@H]1C[C@H](O2)[C@H]3[C@](C)(CCC(=O)Nc1c(O)ccc(C(=O)O)c1O)C(=O)[C@@H]1O[C@@H]14 reads 16
